# study.target: High affinity nerve growth factor receptor (Homo sapiens) (UniProt P04629);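 also: each value is the mean percent inhibition of TRKA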
# Sequence (P04629 33-796 limits assumed): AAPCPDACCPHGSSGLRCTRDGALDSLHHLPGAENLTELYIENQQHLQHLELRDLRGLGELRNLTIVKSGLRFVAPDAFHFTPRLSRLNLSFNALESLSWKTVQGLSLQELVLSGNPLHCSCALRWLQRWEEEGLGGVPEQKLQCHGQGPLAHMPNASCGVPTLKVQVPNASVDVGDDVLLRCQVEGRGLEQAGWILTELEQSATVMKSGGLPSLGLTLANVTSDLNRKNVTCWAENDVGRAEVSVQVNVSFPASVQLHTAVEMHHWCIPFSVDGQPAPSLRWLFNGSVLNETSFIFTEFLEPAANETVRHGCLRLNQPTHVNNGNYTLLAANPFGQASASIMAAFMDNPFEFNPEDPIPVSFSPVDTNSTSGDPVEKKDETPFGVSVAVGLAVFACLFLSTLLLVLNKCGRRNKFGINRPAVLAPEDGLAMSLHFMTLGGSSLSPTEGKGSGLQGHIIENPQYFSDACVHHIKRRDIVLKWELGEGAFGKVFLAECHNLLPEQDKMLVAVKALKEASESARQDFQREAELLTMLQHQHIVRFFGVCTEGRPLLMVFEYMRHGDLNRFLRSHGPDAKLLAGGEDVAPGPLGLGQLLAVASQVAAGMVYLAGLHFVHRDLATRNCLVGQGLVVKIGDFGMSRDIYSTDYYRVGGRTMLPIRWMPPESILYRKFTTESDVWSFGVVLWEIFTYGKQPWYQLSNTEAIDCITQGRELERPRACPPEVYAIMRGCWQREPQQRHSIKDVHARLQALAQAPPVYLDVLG
# measurement.context: at 1 µM
Form field: inhibition (one value per entry).

[
  {
    "molecule": "NC(=O)c1cc(-c2ccncc2)cc(-c2ccccc2)c1N",
    "study.target": "High affinity nerve growth factor receptor (Homo sapiens) (UniProt P04629)",
    "inhibition (%)": 1.84
  },
  {
    "molecule": "COc1ccc(-c2ccc3c(NC(=O)C4CC4)n[nH]c3n2)cc1",
    "study.target": "High affinity nerve growth factor receptor (Homo sapiens) (UniProt P04629)",
    "inhibition (%)": 2.48
  },
  {
    "molecule": "C/C(Nc1ccc(S(N)(=O)=O)cc1)=C1/C(=O)Nc2ccccc21",
    "study.target": "High affinity nerve growth factor receptor (Homo sapiens) (UniProt P04629)",
    "inhibition (%)": 38.3
  },
  {
    "molecule": "O=C1NC(=O)C(c2cccc(Cl)c2)=C1Nc1ccc(Cl)c(C(=O)O)c1",
    "study.target": "High affinity nerve growth factor receptor (Homo sapiens) (UniProt P04629)",
    "inhibition (%)": -0.54
  },
  {
    "molecule": "NS(=O)(=O)c1ccc(N/N=C2\\C(=O)Nc3ccc(C(=O)NCCCn4ccnc4)cc32)cc1",
    "study.target": "High affinity nerve growth factor receptor (Homo sapiens) (UniProt P04629)",
    "inhibition (%)": 12
  },
  {
    "molecule": "Fc1ccc(-c2ncn(C3CCNCC3)c2-c2ccnc(Oc3ccc(F)c(F)c3)n2)cc1",
    "study.target": "High affinity nerve growth factor receptor (Homo sapiens) (UniProt P04629)",
    "inhibition (%)": 3.11
  },
  {
    "molecule": "CCS(=O)(=O)c1ccc(OC)c(Nc2ncc(-c3ccccc3Cl)o2)c1",
    "study.target": "High affinity nerve growth factor receptor (Homo sapiens) (UniProt P04629)",
    "inhibition (%)": 5.58
  },
  {
    "molecule": "C[C@@H](Oc1cc(-n2cnc3ccc(OC4CCN(C)CC4)cc32)sc1C(N)=O)c1ccccc1Cl",
    "study.target": "High affinity nerve growth factor receptor (Homo sapiens) (UniProt P04629)",
    "inhibition (%)": 8.12
  },
  {
    "molecule": "COc1cc2ncn(-c3cc(OCCc4ccccc4)c(C(N)=O)s3)c2cc1OC",
    "study.target": "High affinity nerve growth factor receptor (Homo sapiens) (UniProt P04629)",
    "inhibition (%)": 3.49
  },
  {
    "molecule": "O=C1Nc2ccc(I)cc2C1=Cc1cc(Br)c(O)c(Br)c1",
    "study.target": "High affinity nerve growth factor receptor (Homo sapiens) (UniProt P04629)",
    "inhibition (%)": 7.89
  },
  {
    "molecule": "O=C(Nc1n[nH]c2cc(-c3cc(F)ccc3F)ccc12)C1CC1",
    "study.target": "High affinity nerve growth factor receptor (Homo sapiens) (UniProt P04629)",
    "inhibition (%)": 8.4
  },
  {
    "molecule": "COc1ccc2cc(-c3c(-c4ccncc4)nc(-c4ccc([S+](C)[O-])cc4C)n3C)ccc2c1 (stereo not drawn)",
    "study.target": "High affinity nerve growth factor receptor (Homo sapiens) (UniProt P04629)",
    "inhibition (%)": -0.68
  },
  {
    "molecule": "COc1cccc(/C=N/Nc2ncnc3c2cnn3-c2cccc(OC)c2)c1",
    "study.target": "High affinity nerve growth factor receptor (Homo sapiens) (UniProt P04629)",
    "inhibition (%)": 4.58
  },
  {
    "molecule": "FC(F)(F)c1cccc(Nc2nccc(-c3cnn4nc(-c5ccccc5)ccc34)n2)c1",
    "study.target": "High affinity nerve growth factor receptor (Homo sapiens) (UniProt P04629)",
    "inhibition (%)": -0.33
  },
  {
    "molecule": "CCC(=O)Nc1ccc(C)c(-c2ccc(C(=O)NCC3CC3)cc2)c1",
    "study.target": "High affinity nerve growth factor receptor (Homo sapiens) (UniProt P04629)",
    "inhibition (%)": 4.19
  },
  {
    "molecule": "CCc1cccc(CC)c1/C=C/c1cncc(C(=O)NC)c1",
    "study.target": "High affinity nerve growth factor receptor (Homo sapiens) (UniProt P04629)",
    "inhibition (%)": 1.65
  },
  {
    "molecule": "Fc1ccc(-c2c(-c3ccncc3)nc3n2CCS3)cc1",
    "study.target": "High affinity nerve growth factor receptor (Homo sapiens) (UniProt P04629)",
    "inhibition (%)": -0.43
  },
  {
    "molecule": "COc1cc2ncn(-c3cc(OCc4cccs4)c(C(N)=O)s3)c2cc1OC",
    "study.target": "High affinity nerve growth factor receptor (Homo sapiens) (UniProt P04629)",
    "inhibition (%)": 8.7
  },
  {
    "molecule": "COc1cc(Nc2ncc(-c3ccccc3)o2)cc(OC)c1OC",
    "study.target": "High affinity nerve growth factor receptor (Homo sapiens) (UniProt P04629)",
    "inhibition (%)": 23.1
  },
  {
    "molecule": "CNC(=O)c1cncc(/C=C/c2c(C)cccc2C)c1",
    "study.target": "High affinity nerve growth factor receptor (Homo sapiens) (UniProt P04629)",
    "inhibition (%)": 0.47
  },
  {
    "molecule": "COc1cc2ncn(-c3cc(OCc4ccccc4C(F)(F)F)c(C(C)=O)s3)c2cc1OC",
    "study.target": "High affinity nerve growth factor receptor (Homo sapiens) (UniProt P04629)",
    "inhibition (%)": 1.61
  },
  {
    "molecule": "COc1ccc2ncn(-c3cc(O[C@H](C)c4ccccc4Cl)c(C(N)=O)s3)c2c1",
    "study.target": "High affinity nerve growth factor receptor (Homo sapiens) (UniProt P04629)",
    "inhibition (%)": 4.03
  },
  {
    "molecule": "CN1CCN(CCCNc2nc3ccc(Oc4ccc(NC(=O)Nc5cc(C(F)(F)F)ccc5F)cc4)cc3[nH]2)CC1",
    "study.target": "High affinity nerve growth factor receptor (Homo sapiens) (UniProt P04629)",
    "inhibition (%)": 34
  }
]
